# System: Jurkat
# test_protocol: Induction of apoptosis in human Jurkat cells assessed as apoptotic cells at 50 uM after 24 hrs using annexin-V/Propidium iodide by flow cytometry
# Assay type: functional
condition met if Activity is below 20%. condition not met if not; exact matches included in condition not met.

Consider the worked cases shown below.
>  <compound>
N#CC1=C(N)OC2=C(C(=O)c3ccccc3C2=O)C1c1ccccc1[N+](=O)[O-] (stereo unspecified)

>  <cat>
condition not met

$$$$
>  <compound>
N#CC1=C(N)OC2=C(C(=O)c3ccccc3C2=O)C1c1ccccc1 (stereo unspecified)

>  <cat>
condition met

$$$$
>  <compound>
N#CC1=C(N)OC2=C(C(=O)c3ccccc3C2=O)C1c1c(Cl)cccc1Cl (stereo unspecified)

>  <cat>
condition met

$$$$
>  <compound>
N#CC1=C(N)OC2=C(C(=O)c3ccccc3C2=O)C1c1ccccc1Br (stereo unspecified)

>  <cat>
condition not met

$$$$
>  <compound>
N#CC1=C(N)OC2=C(C(=O)c3ccccc3C2=O)C1c1ccc(Br)cc1 (stereo unspecified)

>  <cat>
condition not met

$$$$
>  <compound>
CC(C)c1ccc(C2C(C#N)=C(N)OC3=C2C(=O)c2ccccc2C3=O)cc1 (stereo unspecified)

>  <cat>
condition met

$$$$
>  <compound>
N#CC1=C(N)OC2=C(C(=O)c3ccccc3C2=O)C1c1cccc(Br)c1 (stereo unspecified)

>  <cat>
condition not met

$$$$
>  <compound>
N#CC1=C(N)OC2=C(C(=O)c3ccccc3C2=O)C1c1ccncc1 (stereo unspecified)

>  <cat>
condition not met

$$$$

-- ask Hello, I'm reviewing records and need to know if Activity of N#CC1=C(N)OC2=C(C(=O)c3ccccc3C2=O)C1c1cccc(Oc2ccccc2)c1 (stereo unspecified) is below 20%. Could you check?
-- reply condition not met

-- ask Please do the same for N#CC1=C(N)OC2=C(C(=O)c3ccccc3C2=O)C1c1cccnc1 (stereo unspecified) as well.
-- reply condition not met

-- ask Again, but for N#CC1=C(N)OC2=C(C(=O)c3ccccc3C2=O)C1c1ccc(Cl)cc1 (stereo unspecified)
-- reply condition not met
